Data origin: ChEMBL document CHEMBL1123713

Entries and their ID50 values follow.
Target: Muscarinic acetylcholine receptor (Homo sapiens) (UniProt P20309+P08173+P11229+P08172+P08912);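 further: blockade of Ca2+-dependent contraction driven by muscarinic receptors in longitudinal smooth muscle strips of guinea pig ileum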
Settings: Cavia porcellus
Description: Inhibition of muscarinic receptor mediated [Ca2+] dependent contraction of guinea pig ileal longitudinal smooth muscle.
State just the number; it will be interpreted in nM.

Here's what some known entries look like.
[[record]]
molecule = "CC1=NC(C)=C(C(=O)OC(C)C)C(C2=CC=CN(C(=O)OC(C)(C)C)C2)/C1=C(\\O)OC(C)C (stereo not drawn)"
value_measured = 114

[[record]]
molecule = "COC(=O)N1C=CC(C2C(C(=O)OCC(C)C)=C(C)N=C(C)/C2=C(/O)OCC(C)C)=CC1 (stereo not drawn)"
value_measured = 1720


Next molecule, please.
Q: Requested field: ID50. Item: CC1=NC(C)=C(C(=O)OCC(C)C)C(C2=CCN(C(=O)OC(C)(C)C)C=C2)/C1=C(\O)OCC(C)C (stereo not drawn)
A: 2030
